assay: yeast display, Sf9 membrane polyspecificity reagent, FACS + sequencing; frameworks hold sequencing errors
Readout Kind: polyreactivity (PSR sort gate)

Query Sequence	Recorded Measurement
LVQLVESGGGLGQAGGSLRLSCAASGFTFTIYAMGWYRQAPGKERELVAAISSSGYSTYYADSVKGRFTISRDNAKNTVYFQMISLKPEDTAVYYCAARGYYRSHLGFLYDYWGQGTQVTVSS	high polyreactivity
QVQLVESGGGLVQAGGSLRLSCAASGSTFRRYAMGWYRQAPGKEREFVAAITWSGGNTYADSVKGRFTISRDNAKNTVYLQMNSLKPEDTAVYYCAVQLVYDHYRYDYWGQGTQVTVSS	high polyreactivity
QVQLVESGGGLVQAGGSLRLSCAASGITFRYYAMGWYRQAPGKERELVAAISRSGGRTYYADSVKGRFTISRDNAKNTVYLQMNSLKPEDTAVYYCAVAVRRGRAYDYWGQGTQVTVSS	high polyreactivity

###

assay: yeast display, Sf9 membrane polyspecificity reagent, FACS + sequencing; frameworks hold sequencing errors
Readout Kind: polyreactivity (PSR sort gate)

Query Sequence	polyreactivity (PSR sort gate)
QVQLVESGGGLVQAGGSLRLSCAASGSIFNRYAMGWYRQAPGKERELVAAIRSDGSTYYADSVKGRFTISRDNAKNTVYLQMNSLKPEDSAVYYCAAPLHRRYYEMDYWGQGSQVTVSS	low polyreactivity
QVQLEESGGGLVQAGGSLRLSCAASGSIFGFYMGWDRQAPRKEREMVAAISGSGGNTYYADSVKGRFTISRDNAKNTVYLQMNSQKPEDNAVYYCAARGYVWNIGRYYWGQGTQVTVSW	high polyreactivity
QVQLVESGGGLVQAGGSLRLSCAASGFNIIPYDMGWYRQAPGKEMDLVATISRGGSTNYADSVKGRFTISRDNAKNTVYLQMNSLKPEDTAVYYCAAEYKVVFSQPYGEYDYWGQGTQVTVSS	low polyreactivity
QVQLVESGGRLVQAGGSLRLSCAASVRIFFQNAMGWSRQAPGKERELVAGISGSGGSTYYADSVKGRFTISRDNAKNTVYLQMNSLKPEDTAVYYCAARYGIISSFEYDYWGQGTQVTVSS	high polyreactivity

Request: Please look up its polyreactivity (PSR sort gate): QVQLVESGGGLVQAGGSLRLSCAASGNIFSANAMVWDRQAPGKEREFVAAISSTGGSTYYADSVKGRFTISRDNAKNTVYLQMNSLIPEDTAVYYCAAYIRRYLHYDYWGQGSQVTVSS
Response: high polyreactivity

Request: What would you report for QVQLVESGGGLVQAGGSLRLSCAASGRTFKRFAMGWYRQAPGKERELVAAITWSGGNTYYADSVKGRFTISRDNAKNTVYLQMNSLKPEDTAVYYCAAKGAGRRYDSWGQGTQVTVSS ?
Response: high polyreactivity

Request: What would you report for QVQLVESGGGIVQAGGSLRLSCAASGRTFNFYAMGWYRQAPGKERELVAAIRKSGASTYYADSVKGRFTISRDNAKNTVYLQMNSLKPEDTAVYYCAADGQVSYALGFDYWGQGTQVTVSS ?
Response: high polyreactivity

Request: What would you report for QVQLVESGGGLVQAGGSLRLSCAASGRIFGGYGMGWYRPAPGKQRELVAAISSGGNTKYADSVKGRFTISRDNAKNTVYLQMNSLKPEDTAVYHCAAKFAQPDYRYDYWGQGTQVTVSS ?
Response: high polyreactivity

Request: What would you report for QVQLVESGGGLVQAGGSLRLSCAASGSSFGSNAMGWSRPAPGKERELVAAITGGDVSTYYADSVKGRFTISRDNAKNTVYLQMNSLKPEDTAVYYCNAEYARPAMDYWGQGTQVTVSS ?
Response: low polyreactivity
